# System under test: human NK-3 receptor (Homo sapiens (Human))
# Sequence (P29371 whole entry): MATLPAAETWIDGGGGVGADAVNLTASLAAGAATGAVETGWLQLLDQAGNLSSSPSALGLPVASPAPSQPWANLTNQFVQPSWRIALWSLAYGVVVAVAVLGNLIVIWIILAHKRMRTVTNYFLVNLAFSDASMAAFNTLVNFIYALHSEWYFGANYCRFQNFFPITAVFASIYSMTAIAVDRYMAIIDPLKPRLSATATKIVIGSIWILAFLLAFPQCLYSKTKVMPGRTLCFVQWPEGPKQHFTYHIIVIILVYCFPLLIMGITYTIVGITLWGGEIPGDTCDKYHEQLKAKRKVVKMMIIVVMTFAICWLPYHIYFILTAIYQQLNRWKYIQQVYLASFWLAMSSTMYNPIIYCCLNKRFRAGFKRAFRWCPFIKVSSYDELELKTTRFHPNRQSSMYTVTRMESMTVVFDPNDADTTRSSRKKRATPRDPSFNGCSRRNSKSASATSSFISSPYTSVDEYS
# Test: Aequorin functional assay with human NK-3 receptor (antagonist testing)
# Experimental setup: CHO cells expressing human NK-3 receptor and apoaequorin; agonist NKA at EC80 (3 nM); read-out: hNK-3 - AEQ (antagonist IC50)
# Protocol: Aequorin Assay with Human NK-3 Receptor Changes in intracellular calcium levels are a recognized indicator of G protein-coupled receptor activity. The efficacy of compounds of the invention to inhibit NKA-mediated NK-3 receptor activation was assessed by an in vitro Aequorin functional assay. […] In the presence of the cofactor coelenterazine, apoaequorin emits a measurable luminescence that is proportional to the amount of intracellular (cytoplasmic) free calcium. […]
Each record is given 1 if its reported IC50 is strictly below 200 nM. Records at or above 200 nM are given 0.

> print(dat)
                                   molecule  class.assignment
1  Cc1nsc(-c2nnc3n2CCN(C(=O)c2ccc(Cl)c(F)c2)C3)n1 [Compound 3]                 1
2  Cc1nsc(-c2nnc3n2CCN(C(=O)c2ccc(F)c(F)c2F)C3)n1 [Compound 7]                 0
3  Cc1nsc(-c2nnc3n2CCN(C(=O)c2ccc(Cl)cc2)C3)n1 [Compound 2]                 1
4  Cc1nsc(-c2nnc3n2CCN(C(=O)c2ccc(F)c(F)c2)C3)n1 [Compound 5]                 0
5  Cc1nsc(-c2nnc3n2CCN(C(=O)c2ccc(F)cc2)C3)n1 [Compound 1]                 1
6  Cc1nsc(-c2nnc3n2CCN(C(=O)c2cc(F)c(F)c(F)c2)C3)n1 [Compound 6]                 0

----------
# System under test: human NK-3 receptor (Homo sapiens (Human))
pKi: −log10 of the molar value.
Endpoint name: pKi

> print(dat)
                                   compound                         system.under.test  value.measured
1  Cc1nsc(-c2nnc3n2CCN(C(=O)c2ccc(F)c(F)c2)C3)n1 [Compound 5]  human NK-3 receptor (Homo sapiens (Human))            6.77
2  Cc1nsc(-c2nnc3n2CCN(C(=O)c2cc(F)c(F)c(F)c2)C3)n1 [Compound 6]  human NK-3 receptor (Homo sapiens (Human))            6.77
3  Cc1nsc(-c2nnc3n2CCN(C(=O)c2ccc(F)c(F)c2F)C3)n1 [Compound 7]  human NK-3 receptor (Homo sapiens (Human))            6.62
4  Cc1nsc(-c2nnc3n2CCN(C(=O)c2ccc(F)cc2)C3)n1 [Compound 1]  human NK-3 receptor (Homo sapiens (Human))            6.85
5  Cc1nsc(-c2nnc3n2CCN(C(=O)c2ccc(Cl)cc2)C3)n1 [Compound 2]  human NK-3 receptor (Homo sapiens (Human))            7.00
6  Cc1nsc(-c2nnc3n2CCN(C(=O)c2ccc(Cl)c(F)c2)C3)n1 [Compound 3]  human NK-3 receptor (Homo sapiens (Human))            7.03

----------
# System under test: hERG channel (Homo sapiens (Human))
# Sequence (Q12809 whole entry): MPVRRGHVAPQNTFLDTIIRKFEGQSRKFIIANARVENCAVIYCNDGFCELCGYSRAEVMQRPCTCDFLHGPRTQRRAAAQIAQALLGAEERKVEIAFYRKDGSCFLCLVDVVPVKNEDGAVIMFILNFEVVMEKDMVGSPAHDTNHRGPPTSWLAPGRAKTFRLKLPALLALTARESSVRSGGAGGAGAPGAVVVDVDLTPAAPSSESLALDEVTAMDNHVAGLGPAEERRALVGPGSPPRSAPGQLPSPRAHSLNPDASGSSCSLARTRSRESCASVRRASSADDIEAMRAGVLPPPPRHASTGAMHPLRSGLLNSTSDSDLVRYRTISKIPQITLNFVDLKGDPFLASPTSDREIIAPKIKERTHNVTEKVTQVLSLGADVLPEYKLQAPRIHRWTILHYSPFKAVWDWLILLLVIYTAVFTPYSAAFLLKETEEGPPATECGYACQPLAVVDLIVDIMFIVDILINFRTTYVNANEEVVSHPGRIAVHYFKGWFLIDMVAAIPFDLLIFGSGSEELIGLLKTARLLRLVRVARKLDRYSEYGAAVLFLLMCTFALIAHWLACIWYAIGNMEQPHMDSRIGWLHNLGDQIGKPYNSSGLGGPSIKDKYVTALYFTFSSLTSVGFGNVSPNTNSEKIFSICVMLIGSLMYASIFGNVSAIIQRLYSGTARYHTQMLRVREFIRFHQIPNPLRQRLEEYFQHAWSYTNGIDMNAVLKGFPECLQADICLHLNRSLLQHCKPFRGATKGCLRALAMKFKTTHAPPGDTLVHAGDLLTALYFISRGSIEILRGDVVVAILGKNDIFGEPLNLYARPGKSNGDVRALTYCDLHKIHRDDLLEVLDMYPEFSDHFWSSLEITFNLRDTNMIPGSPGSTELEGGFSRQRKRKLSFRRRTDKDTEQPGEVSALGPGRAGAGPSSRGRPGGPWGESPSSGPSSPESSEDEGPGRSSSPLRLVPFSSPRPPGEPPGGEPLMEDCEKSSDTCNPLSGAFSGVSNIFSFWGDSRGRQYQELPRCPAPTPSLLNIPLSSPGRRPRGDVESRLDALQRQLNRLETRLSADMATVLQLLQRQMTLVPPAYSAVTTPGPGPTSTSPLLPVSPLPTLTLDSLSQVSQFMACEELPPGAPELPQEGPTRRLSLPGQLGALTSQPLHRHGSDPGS
# Test: hERG inhibition assay (manual patch-clamp, HEK 293 cells)
# Experimental setup: 5 minutes of exposure, read-out: CardioSafety (hERG IC50)
pIC50: −log10 of the molar value.
Endpoint name: pIC50

> print(dat)
                         compound.structure                    system.under.test  endpoint.name  value.measured
1  Cc1nsc(-c2nnc3n2CCN(C(=O)c2ccc(Cl)cc2)C3)n1  hERG channel (Homo sapiens (Human))          pIC50            4.46
